Biological target: Cholecystokinin receptor type A (Rattus norvegicus, UniProt P30551)
Sequence (P30551 whole entry): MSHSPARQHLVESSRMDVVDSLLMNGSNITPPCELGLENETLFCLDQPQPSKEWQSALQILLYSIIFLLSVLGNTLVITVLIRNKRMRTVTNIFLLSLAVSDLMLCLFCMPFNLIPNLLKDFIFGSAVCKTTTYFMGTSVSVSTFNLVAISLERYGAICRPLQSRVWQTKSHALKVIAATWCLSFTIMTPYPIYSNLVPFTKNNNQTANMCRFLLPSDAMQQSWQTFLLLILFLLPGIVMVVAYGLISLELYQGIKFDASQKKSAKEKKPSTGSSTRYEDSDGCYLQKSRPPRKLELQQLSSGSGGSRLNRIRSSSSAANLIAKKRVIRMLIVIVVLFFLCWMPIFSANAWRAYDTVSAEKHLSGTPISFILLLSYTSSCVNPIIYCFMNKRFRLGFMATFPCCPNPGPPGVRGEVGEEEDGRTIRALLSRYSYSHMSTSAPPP
pIC50: −log10 of the molar value.
measure: pIC50

{"columns": ["smiles-entry", "assayed-target", "pIC50"],
 "data": [
  ["CC(C)Oc1cccc(-n2c(CNC(=O)Nc3ccc(Br)cc3)nc3ccccc3c2=O)c1", "Cholecystokinin receptor type A (Rattus norvegicus, UniProt P30551)", 6.01]
]}

I: CC(C)Oc1cccc(-n2c(CNC(=O)Nc3ccc(C(F)(F)F)cc3)nc3ccccc3c2=O)c1
II: CC(C)Oc1cccc(-n2c(CCNC(=O)Nc3ccc(Br)cc3)nc3ccccc3c2=O)c1
III: CC(C)Oc1cccc(-n2c(CNC(=O)NCc3ccc(Br)cc3)nc3ccccc3c2=O)c1
**Q:** With regard to pIC50, arrange the entries in ascending order, please. The response must list the labels following the requested ordering.
**A:** III, II, I
